Tested on: COLO 205 colon
Assay: NCI tumour cell line growth inhibition, 48 h
I'd be grateful if you could share measured TGI for these entries.
Give just the numeric value; µM need not be written.

Inquiry: Look up COLO 205 colon data: TGI of Oc1c(I)cc(I)cc1CNCCCN(Cc1ccccn1)Cc1ccccn1 , then report it.
Reply text: 5.99

Inquiry: Look up COLO 205 colon data: TGI of COc1cc(C/C=C/c2ccccc2)c(OC)cc1O , then report it.
Reply text: 45.5

---

Test system: SF-539 CNS
Assay: NCI tumour cell line growth inhibition, 48 h
Endpoint Label: TGI

Inquiry: Quickly give me recorded TGI for O=C1C[C@@H](c2ccccc2)NCCCCN(O)CCCN1
Reply text: > 100 µM

Inquiry: Quickly give me recorded TGI for Cc1ccc(O)c(Cc2nc3ccccc3nc2-c2cccc(Br)c2)c1
Reply text: > 100 µM

Inquiry: Quickly give me recorded TGI for [N-]=[N+]=C1CNC(=O)NC1=O
Reply text: > 100 µM

Inquiry: Quickly give me recorded TGI for O=c1c2cc(-c3ccccc3)cnc2sn1-c1ccc([N+](=O)[O-])cc1
Reply text: > 100 µM

Inquiry: Quickly give me recorded TGI for O=C(NCCO)c1c(O)c2ccccc2[nH]c1=O
Reply text: > 100 µM

Inquiry: Quickly give me recorded TGI for C[C@H](CC[C@@H](O)C(C)(C)O)[C@H]1CC[C@@]2(C)[C@@H]3CC=C4[C@@H](CC[C@H](OC5OC(CO)C(O)C(O)C5O)C4(C)C)[C@]3(C)C(=O)C[C@]12C (stereo not given in full)
Reply text: > 100 µM

Inquiry: Quickly give me recorded TGI for COc1ccc(CNc2nc3ccccc3nc2-c2cccs2)cc1OC
Reply text: > 100 µM

Inquiry: Quickly give me recorded TGI for COC(=O)C1CC2(c3ccc(C)cc3)C(c3ccc(C)cc3)=C(c3ccc(C)cc3)C1(c1ccc(C)cc1)S2=O (stereo not given)
Reply text: > 100 µM

Inquiry: Quickly give me recorded TGI for CC(=O)c1ccc2c(c1)oc(=O)n2CCN(C)C
Reply text: > 100 µM

Inquiry: Quickly give me recorded TGI for Cc1nc2ccccc2c(=O)n1NC(=O)Cc1ccccc1
Reply text: > 100 µM

Inquiry: Quickly give me recorded TGI for Clc1ccccc1-c1nc2ccccc2[nH]1
Reply text: > 100 µM

Inquiry: Quickly give me recorded TGI for O=[N+]([O-])c1cccc2nc3ccccc3c(NCCC[N+]3([O-])CCCCC3)c12
Reply text: 2.16 µM

Inquiry: Quickly give me recorded TGI for O=C1OCC2=C1C(c1cccc(F)c1)c1cc3c(cc1N2CCO)OCCO3 (stereo not given)
Reply text: 0.831 µM

Inquiry: Quickly give me recorded TGI for C#CCOCn1cnc2ncnc(Cl)c21
Reply text: > 100 µM

Inquiry: Quickly give me recorded TGI for COc1ccc(C(=O)Nc2ncc(Cc3ccc(F)cc3)s2)cc1
Reply text: 0.414 µM

Inquiry: Quickly give me recorded TGI for CN(N)C(=O)NCCCl
Reply text: > 100 µM

Inquiry: Quickly give me recorded TGI for COc1ccc(/C=C/c2nc(N3CCOCC3)c3cc(F)c(F)cc3n2)cc1OC
Reply text: > 100 µM

Inquiry: Quickly give me recorded TGI for NC(=O)Nc1ccc2ncnc(Nc3ccc(Cl)cc3)c2c1
Reply text: > 100 µM

Inquiry: Quickly give me recorded TGI for COC(=O)C1=C(OC(=O)/C(=C/c2ccc(Cl)cc2)c2ccccc2)C(C(=O)OC)[C@@]2(O)[C@@H](C(=O)OC)[C@H](C)C[C@@H]1[C@@H]2C(=O)OC (stereo not given in full)
Reply text: > 100 µM

Inquiry: Quickly give me recorded TGI for COC(=O)c1[nH]nc(-c2ccccc2)c1N1CCCCC1
Reply text: 57.4 µM
